# Degradation rate (%) of ERα in MCF-7 cells values compiled below
molecular target: ERα (Homo sapiens, UniProt P03372); test: Degradation of ERα in MCF-7 cells (immunoblotting, 4 h); type: cell-based; conditions: 1nM compound
Write down the numeric answer in % and omit the unit.

O=C1CCC(N2Cc3cc4c(cc3C2=O)CCC2(CN(C(=O)C3CCC5(CC3)CN(c3ccc([C@@H]6c7ccc(O)cc7CC[C@@H]6c6ccccc6)cc3)C5)C2)O4)C(=O)N1 (some centres unmarked) [A46]; -22

// compound C[C@@H]1Cc2c(ccc3[nH]ncc23)C(c2c(F)cc(N3CC4(CCC(N5CCC6(CC5)COc5c6ccc6c5CN(C5CCC(=O)NC5=O)C6=O)CC4)C3)cc2F)N1CC(F)F (some centres unmarked) [G21] , assay ERα (Homo sapiens, UniProt P03372), Degradation rate (%) of ERα in MCF-7 cells value: 45

// compound CCC(C(=O)N1CCC2(CC1)COc1c2ccc2c1CN(C1CCC(=O)NC1=O)C2=O)N1CCC2(CCN(c3ccc([C@@H]4c5ccc(O)cc5CC[C@@H]4c4ccccc4)cc3)CC2)C1 (some centres unmarked) [A95] , assay ERα (Homo sapiens, UniProt P03372), Degradation rate (%) of ERα in MCF-7 cells value: 42

// compound O=C1CCC(N2Cc3c(ccc4c3OCC43CCN(C4CC5CC4CN5C(=O)C4CCN(c5ccc([C@@H]6c7ccc(O)cc7CC[C@@H]6c6ccccc6)cc5)CC4)CC3)C2=O)C(=O)N1 (some centres unmarked) [D2] , assay ERα (Homo sapiens, UniProt P03372), Degradation rate (%) of ERα in MCF-7 cells value: 31

// compound O=C1CCC(N2Cc3c(ccc4c3OCC43CCN(C(=O)CN4CCC5(CC4)CCN(c4ccc([C@@H]6c7ccc(O)cc7CC[C@@H]6c6ccccc6)cc4)C5)CC3)C2=O)C(=O)N1 (some centres unmarked) [A75] , assay ERα (Homo sapiens, UniProt P03372), Degradation rate (%) of ERα in MCF-7 cells value: 16

----------
Target: ERα (Homo sapiens)
Sequence (P03372 1-595): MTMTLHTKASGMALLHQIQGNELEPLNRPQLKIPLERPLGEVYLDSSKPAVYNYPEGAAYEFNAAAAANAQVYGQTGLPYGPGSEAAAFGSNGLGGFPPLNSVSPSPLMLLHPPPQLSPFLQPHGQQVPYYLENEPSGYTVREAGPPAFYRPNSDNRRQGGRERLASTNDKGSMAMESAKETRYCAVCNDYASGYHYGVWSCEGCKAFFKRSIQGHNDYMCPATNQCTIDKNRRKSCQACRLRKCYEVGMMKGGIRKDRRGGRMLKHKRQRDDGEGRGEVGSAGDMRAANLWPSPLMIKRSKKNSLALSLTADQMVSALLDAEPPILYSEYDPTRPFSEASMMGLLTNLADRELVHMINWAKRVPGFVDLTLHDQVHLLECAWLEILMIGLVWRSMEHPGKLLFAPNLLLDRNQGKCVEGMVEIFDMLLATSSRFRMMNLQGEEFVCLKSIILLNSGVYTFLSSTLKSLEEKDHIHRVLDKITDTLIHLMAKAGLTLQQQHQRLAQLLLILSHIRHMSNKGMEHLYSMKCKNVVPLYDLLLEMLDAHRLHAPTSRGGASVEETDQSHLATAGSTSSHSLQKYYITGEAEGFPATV
Test: Degradation of ERα in T-47D cells (immunoblotting, 4 h)
Format: cell-based
Design: host or cells: T-47D
Conditions: 10nM compound
Test readout: Degradation rate (%) of ERα in T-47D cells
Write down the numeric answer in % and omit the unit.

O=C1CCC(N2Cc3c(ccc4c3OCC43CCN(CC(=O)N4CCC5(CCN(c6ccc([C@@H]7c8ccc(O)cc8CC[C@@H]7c7ccccc7)cc6)CC5)C4)CC3)C2=O)C(=O)N1 (some centres unmarked) [A73]; 73
O=C1CCC(N2Cc3c(ccc4c3OCC43CCN(CC(=O)N4CC5(CCC(C#Cc6ccc([C@@H]7c8ccc(O)cc8CC[C@@H]7c7ccccc7)cc6)CC5)C4)CC3)C2=O)C(=O)N1 (some centres unmarked) [B30]; 46
O=C1CCC(N2Cc3c(ccc4c3OCC43CCN(C4CCN(C(=O)C5CCC6(CC5)CCN(c5ccc([C@@H]7c8ccc(O)cc8CC[C@@H]7c7ccccc7)cc5)CC6)CC4)CC3)C2=O)C(=O)N1 (some centres unmarked) [B18]; 79
O=C1CCC(N2Cc3c(ccc4c3OCC43CCN(C4CCN(C(=O)C5CCN(c6ccc([C@@H]7c8ccc(O)cc8CC[C@@H]7c7ccccc7)cc6)CC5)[C@@H](C(=O)N5CCC(F)(F)CC5)C4)CC3)C2=O)C(=O)N1 (some centres unmarked) [C1]; 72

--- query ---
// compound O=C1CCC(N2C(=O)c3cc4c(cc3C2=O)OC2(CCN(C3CCN(C5CN(c6ccc([C@@H]7c8ccc(O)cc8CC[C@@H]7c7ccccc7)cc6)C5)CC3)CC2)C4)C(=O)N1 (some centres unmarked) [A59] , assay ERα (Homo sapiens), Degradation rate (%) of ERα in T-47D cells value: 50

----------
biological target: UniProt:P03372; assay: Degradation of ERα in T-47D cells (immunoblotting, 4 h); type: cell-based; parameters: host or cells: T-47D; conditions: 1nM compound
# Degradation rate (%) of ERα in T-47D cells values compiled below
Write down the numeric answer in % and omit the unit.

Would you please look over these solved cases?
O=C1CCC(N2Cc3c(ccc4c3OCC43CCN(C(=O)[C@H]4C[C@@H](OC5CCN(c6ccc([C@@H]7c8ccc(O)cc8CC[C@@H]7c7ccccc7)cc6)CC5)C4)CC3)C2=O)C(=O)N1 (some centres unmarked) [H61]; 63
C[C@@H]1Cc2c([nH]c3ccccc23)[C@@H](c2c(F)cc(N3CCC4(CCC(N5CCC6(CC5)COc5c6ccc6c5CN(C5CCC(=O)NC5=O)C6=O)CC4)CC3)cc2F)N1CC(F)F (some centres unmarked) [A103]; 29
O=C1CCC(N2Cc3c(ccc4c3OCC43CCN(C4CCC(OC5CCN(c6ccc([C@@H]7c8ccc(O)cc8CC[C@@H]7c7ccccc7)cc6)CC5)CC4)CC3)C2=O)C(=O)N1 (some centres unmarked) [K50]; 52

Noted for O=C1CCC(N2Cc3c(ccc4c3OCC43CCN(C(=O)c4ccc(CN5CCN(c6ccc([C@@H]7c8ccc(O)cc8CC[C@@H]7c7ccccc7)cc6)CC5)cc4)CC3)C2=O)C(=O)N1 (some centres unmarked) [B39] : its Degradation rate (%) of ERα in T-47D cells reads 47

Noted for CN(C1CCN(c2ccc([C@@H]3c4ccc(O)cc4CC[C@@H]3c3ccccc3)cc2)CC1)[C@H]1CC[C@H](C(=O)N2CCC3(CC2)COc2c3ccc3c2CN(C2CCC(=O)NC2=O)C3=O)CC1 (some centres unmarked) [N2] : its Degradation rate (%) of ERα in T-47D cells reads 10

----------
biological target: ERα (Homo sapiens, UniProt P03372); experiment: Degradation of ERα in MCF-7 cells (immunoblotting, 4 h); format: cell-based; conditions: 10nM compound
// assign 1.0 if Degradation rate (%) of ERα in MCF-7 cells falls strictly below 60%, else 0.0 (ties count as 0.0)

Worked examples follow.
CN(C(=O)CN1CCC2(CC1)COc1c2ccc2c1CN(C1CCC(=O)NC1=O)C2=O)C1CC2(CCN(c3ccc([C@@H]4c5ccc(O)cc5CC[C@@H]4c4ccccc4)cc3)CC2)C1 (some centres unmarked) [H47]; 0.0
N#CC1(CN2CCC3(CC2)COc2c3ccc3c2CN(C2CCC(=O)NC2=O)C3=O)CCN(CC2CCN(c3ccc([C@@H]4c5ccc(O)cc5CC[C@@H]4c4ccccc4)cc3)CC2)CC1 (some centres unmarked) [N7]; 1.0
CN(C1CCN(c2ccc([C@@H]3c4ccc(O)cc4CC[C@@H]3c3ccccc3)cc2)CC1)[C@H]1CC[C@@H](C(=O)N2CCC3(CC2)COc2c3ccc3c2CN(C2CCC(=O)NC2=O)C3=O)CC1 (some centres unmarked) [B35]; 0.0
O=C1CCC(N2Cc3cc4c(cc3C2=O)CCC2(CN(CC3CCC5(CC3)CN(c3ccc([C@@H]6c7ccc(O)cc7CC[C@@H]6c6ccccc6)cc3)C5)C2)O4)C(=O)N1 (some centres unmarked) [M15]; 1.0

Problem: Lab note: Degradation rate (%) of ERα in MCF-7 cells threshold 60%. Does this molecule come in strictly under it? C[C@@H]1Cc2cc(O)ccc2C(c2c(F)cc(N3CCC4(CCN(CC(=O)N5CCC6(CC5)COc5c6ccc6c5CN(C5CCC(=O)NC5=O)C6=O)C4)CC3)cc2F)N1CC(F)F (some centres unmarked) [F8]
Result: 0.0

----------
target: ERα (Homo sapiens); test: Degradation of ERα in MCF-7 cells (immunoblotting, 4 h); format: cell-based; details: 1nM compound
# Degradation rate (%) of ERα in MCF-7 cells values compiled below
Write down the numeric answer in % and omit the unit.

O=C1CCC(N2C(=O)c3cc4c(cc3C2=O)OC2(CCN(C3CC5(CCN(c6ccc([C@@H]7c8ccc(O)cc8CC[C@@H]7c7ccccc7)cc6)CC5)C3)CC2)C4)C(=O)N1 (some centres unmarked); -2

Noted for CC1CC(N2CCC3(CC2)COc2c3ccc3c2CN(C2CCC(=O)NC2=O)C3=O)CCN1C1CC2(CCN(c3ccc(C4c5ccc(O)cc5CCC4c4ccccc4)cc3)CC2)C1 (centres unmarked) : its Degradation rate (%) of ERα in MCF-7 cells reads 43

Noted for O=C1CCC(N2Cc3ccc4c(c3C2=O)OCC42CCN(C3CCN(C(=O)C4CCN(c5ccc([C@@H]6c7ccc(O)cc7CC[C@@H]6c6ccccc6)cc5)CC4)CC3)CC2)C(=O)N1 (some centres unmarked) : its Degradation rate (%) of ERα in MCF-7 cells reads 22

Noted for C[C@@H]1Cc2c(ccc3[nH]ncc23)C(c2ccc(N3CCC4(CCN(C(=O)CN5CCC6(CC5)COc5c6ccc6c5CN(C5CCC(=O)NC5=O)C6=O)CC4)CC3)cn2)N1CC(F)(F)F (some centres unmarked) : its Degradation rate (%) of ERα in MCF-7 cells reads 33

Noted for C[C@@H]1Cc2c(ccc3[nH]ncc23)C(c2c(F)cc(N3CCC4(CCC(N5CCC6(CC5)COc5c6ccc6c5CN(C5CCC(=O)NC5=O)C6=O)CC4)CC3)cc2F)N1CC(F)F (some centres unmarked) : its Degradation rate (%) of ERα in MCF-7 cells reads 22
